Property: log10 of IC50; scope: individual compounds
- target: S. aureus Uridine-diphosphate-N-acetylmuramoyl-L-alanine: D-glutamate liease, MurD (Staphylococcus aureus, UniProt Q2FZ92)
- Sequence (Q2FZ92 1-449): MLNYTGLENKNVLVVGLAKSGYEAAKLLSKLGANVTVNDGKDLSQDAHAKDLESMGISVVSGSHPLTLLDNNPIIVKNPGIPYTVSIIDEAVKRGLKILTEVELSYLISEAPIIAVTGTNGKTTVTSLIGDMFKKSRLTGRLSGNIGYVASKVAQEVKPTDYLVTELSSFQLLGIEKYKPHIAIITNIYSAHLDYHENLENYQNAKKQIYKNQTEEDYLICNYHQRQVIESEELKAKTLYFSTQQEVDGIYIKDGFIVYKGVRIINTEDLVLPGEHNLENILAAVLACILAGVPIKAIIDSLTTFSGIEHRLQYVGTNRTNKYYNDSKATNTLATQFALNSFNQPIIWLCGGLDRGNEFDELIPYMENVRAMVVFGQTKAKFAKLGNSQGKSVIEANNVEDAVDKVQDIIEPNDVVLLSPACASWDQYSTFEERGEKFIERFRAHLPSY
observation-type: log10 of IC50 (log10 of the value in µM)

{"compound": "O=C1O/C(=C\\c2ccc(-c3ccccc3)cc2)C(O)=C1c1ccc(Cl)c(Cl)c1 [Example 66]", "log10 of IC50": 1.09}
{"compound": "O=C1O/C(=C\\c2cccc3ccccc23)C(O)=C1c1ccc(-c2ccccc2)cc1 [R=H, R1=4-biphenyl, R2=1-naphthyl]", "log10 of IC50": 1.58}
{"compound": "N#Cc1cccc(-c2ccc(/C=C3\\OC(=O)C(c4ccccc4C#N)=C3O)cc2)c1 [Example 59]", "log10 of IC50": 1.11}
{"compound": "O=C1O/C(=C\\c2ccc3ccccc3c2)C(O)=C1c1cccc2ccccc12 [Example 56]", "log10 of IC50": 1.72}
{"compound": "O=C1O/C(=C\\c2ccc(-c3ccccc3)cc2)C(O)=C1c1cccc(C(F)(F)F)c1 [Example 10]", "log10 of IC50": 1.50}
{"compound": "O=C1O/C(=C\\c2ccccc2-c2ccc(Cl)cc2)C(O)=C1c1ccc(Cl)cc1 [Example 137]", "log10 of IC50": 1.64}
{"compound": "O=C1O/C(=C\\c2cccc(-c3cccc(Cl)c3)c2)C(O)=C1c1cccc(Cl)c1 [Example 134]", "log10 of IC50": 1.29}
{"compound": "COc1cc(/C=C2\\OC(=O)C(c3cc(Cl)cc(Cl)c3)=C2O)ccc1-c1ccccc1C [Example 25]", "log10 of IC50": 1.49}
{"compound": "O=C1O/C(=C\\c2ccc(-c3ccccc3)cc2)C(O)=C1c1cccc(Cl)c1 [Example 69]", "log10 of IC50": 1.27}
{"compound": "O=C1O/C(=C\\c2ccc(-c3ccccc3)cc2)C(O)=C1c1cc(Cl)cc(Cl)c1 [Example 67]", "log10 of IC50": 1.29}
{"compound": "COc1ccc(/C=C2\\OC(=O)C(c3cc(Cl)cc(Cl)c3)=C2O)c2ccccc12 [Example 36]", "log10 of IC50": 1.34}
{"compound": "O=C1O/C(=C\\c2ccccc2-c2ccc(Cl)c(Cl)c2)C(O)=C1c1ccc(Cl)c(Cl)c1 [Example 141]", "log10 of IC50": 0.80}
{"compound": "O=C1O/C(=C\\C2CCCCC2)C(O)=C1c1ccc(-c2ccccc2)cc1 [Example 100]", "log10 of IC50": 1.84}
{"compound": "O=C1O/C(=C\\c2ccc(-c3ccccc3)cc2)C(O)=C1c1ccc(Cl)cc1Cl [Example 65]", "log10 of IC50": 1.56}
{"compound": "O=C1O/C(=C\\c2ccc(-c3ccc(Cl)cc3)cc2)C(O)=C1c1ccc(Cl)cc1 [R=H, R1=4-Cl—C6H4, R2=4-(4′-Cl-biphenyl)]", "log10 of IC50": 1.29}
